# study-target: T1, PSMA Fab (006 PSMA Fab)
# T1 construct: also called Anti-PSMA Fab; anti-PSMA Fab
# assay-protocol: clonal phage ELISA; biotinylated PSMA Fab on neutravidin plate, blocking buffer alone, anti-M13-HRP detection;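 further: crude clonal phage supernatants added without washing to wells preincubated with PSMA antigen or with blocking buffer alone, briefly incubated, then washed before bound phage detection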
Where no end group is shown, it is not given here.
readout-kind: Phage binding ELISA signal, Anti-PSMA Fab
API doc: respond with a numeric literal and nothing else, no unit.

Known Phage binding ELISA signal, Anti-PSMA Fab results, listed for orientation:
1. DYKWCTPMWMCEVV [Phage-2723]	0.753
2. DMHWCTPQWMCAPL (cysteine pairing not given here; also: displayed on bacteriophage as fusion to pIII, linker not given here) [Phage-2719]	0.771
3. DQKWCIPLWMCETR [Phage-2722]	0.762
4. NVKWCVPHWMCEVS [Phage-2721]	0.765
5. VANWCTPKWMCEHV (cysteine pairing not given here; also: displayed on bacteriophage as fusion to pIII, linker not given here) [Phage-2716]	0.777
6. HEKWCVPSWMCDDW (cysteine pairing not given here; also: displayed on bacteriophage as fusion to pIII, linker not given here) [Phage-2714]	0.784

Kindly review the next binder as well.
Asked: State the recorded Phage binding ELISA signal, Anti-PSMA Fab for this entry: NTHWCTPSWMCSAW (cysteine pairing not given here; also: displayed on bacteriophage as fusion to pIII, linker not given here) [Phage-2713]
Given back: 0.789
